Data credit: ChEMBL document CHEMBL1152644

Parameter: pIC50. Scope: all listed entries.
Tested on: HCT-116
assay_overview: Cytotoxicity against human HCT116 cells after 2 days
run_parameters: HCT-116, 48 h
Convention used: pIC50 is expressed as -log10 of the molar concentration.

compound	pIC50
COc1cc([C@@H]2c3cc4c(cc3[C@@H](O[C@@H]3O[C@@H]5CO[C@@H](C)O[C@H]5[C@H](O)[C@H]3O)[C@H]3COC(=O)[C@H]23)OCO4)cc(OC)c1O [ETOPOSIDE]	4.84

Pending compound:
What measured pIC50 goes with Cn1nnc2c(C(N)=O)ncn2c1=O [TEMOZOLOMIDE] ?
5.36

----------
Record: log10 IC50 reported on Poly [ADP-ribose] polymerase 1 (Homo sapiens).
Sequence (P09874 whole entry): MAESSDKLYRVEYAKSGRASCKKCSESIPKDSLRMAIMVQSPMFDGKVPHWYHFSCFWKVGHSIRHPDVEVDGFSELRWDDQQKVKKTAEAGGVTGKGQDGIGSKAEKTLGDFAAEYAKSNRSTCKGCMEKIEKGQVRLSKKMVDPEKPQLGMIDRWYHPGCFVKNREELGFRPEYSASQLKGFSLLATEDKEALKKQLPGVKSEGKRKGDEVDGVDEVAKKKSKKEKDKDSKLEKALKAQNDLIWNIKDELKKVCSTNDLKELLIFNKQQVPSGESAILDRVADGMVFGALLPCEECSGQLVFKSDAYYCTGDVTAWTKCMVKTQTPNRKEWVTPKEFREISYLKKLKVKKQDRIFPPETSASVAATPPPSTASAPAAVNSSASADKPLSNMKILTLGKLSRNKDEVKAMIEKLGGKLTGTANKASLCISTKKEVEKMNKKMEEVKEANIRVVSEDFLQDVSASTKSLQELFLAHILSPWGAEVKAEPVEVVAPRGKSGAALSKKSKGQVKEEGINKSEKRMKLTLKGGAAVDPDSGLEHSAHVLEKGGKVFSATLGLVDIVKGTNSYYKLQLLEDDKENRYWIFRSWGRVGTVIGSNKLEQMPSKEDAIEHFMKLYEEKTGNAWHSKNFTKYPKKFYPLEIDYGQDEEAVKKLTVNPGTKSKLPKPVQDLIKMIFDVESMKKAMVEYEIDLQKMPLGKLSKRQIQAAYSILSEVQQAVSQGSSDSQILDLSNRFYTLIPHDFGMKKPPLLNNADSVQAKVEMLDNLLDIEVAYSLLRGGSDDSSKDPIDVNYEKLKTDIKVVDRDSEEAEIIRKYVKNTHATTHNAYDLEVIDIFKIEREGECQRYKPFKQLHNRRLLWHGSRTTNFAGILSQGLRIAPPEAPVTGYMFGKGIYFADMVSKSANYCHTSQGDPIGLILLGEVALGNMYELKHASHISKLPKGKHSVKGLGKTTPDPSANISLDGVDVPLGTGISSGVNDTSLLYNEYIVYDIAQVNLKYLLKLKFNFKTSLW
Recorded IC50 (log10, µM)

Example cases with answers are listed next.
smiles_data	result
Cc1ccn2c(n1)nc1c3ccccc3c(=O)[nH]c12	-0.25
O=c1[nH]c2c(nc3c4ccccc4ccn32)c2ccccc12	0.61
O=c1[nH]c2c(nc3cc(S(=O)(=O)NCCCN4CCOCC4)ccn32)c2ccccc12	-1.44

Give log10 IC50 (Poly [ADP-ribose] polymerase 1 (Homo sapiens)) of the following molecule: `O=C1NCCc2c(OCCCCN3CCCCC3)cccc21`
1.03

Give log10 IC50 (Poly [ADP-ribose] polymerase 1 (Homo sapiens)) of the following molecule: `O=c1[nH]c2c(nc3cnccn32)c2ccccc12`
0.51
